The measured values listed here are drawn from patent US7435837B2.

# ASSAYED TARGET: human 5-hydroxytryptamine-2C (h5-HT2C) receptor (Homo sapiens, UniProt P28335)
# Construct: expressed in transfected cells; host or cells: CHO (Chinese Hamster Ovary) cells; membranes
# Sequence (P28335 33-458): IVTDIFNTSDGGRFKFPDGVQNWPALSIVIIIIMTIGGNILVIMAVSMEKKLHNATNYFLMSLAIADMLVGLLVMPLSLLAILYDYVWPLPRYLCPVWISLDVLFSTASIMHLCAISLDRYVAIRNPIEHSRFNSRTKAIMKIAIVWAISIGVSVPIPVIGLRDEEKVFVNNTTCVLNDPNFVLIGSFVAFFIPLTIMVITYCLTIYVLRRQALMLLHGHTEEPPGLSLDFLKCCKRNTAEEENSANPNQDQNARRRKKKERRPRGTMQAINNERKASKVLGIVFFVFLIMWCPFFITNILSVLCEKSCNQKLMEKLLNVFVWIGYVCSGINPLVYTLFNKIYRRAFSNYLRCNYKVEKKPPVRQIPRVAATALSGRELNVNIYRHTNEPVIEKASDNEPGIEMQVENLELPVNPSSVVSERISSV
# PROCEDURE TEXT: [125I]DOI binding to membranes of CHO cells expressing the human 5-HT2C receptor
# STATED CONDITIONS: [125I]DOI radioligand, CHO cell membranes, room temperature 60 min; read-out: 5-HT2C Affinity Ki
Ki under 10 nM gets Met, anything at or over 10 nM gets Not met.

1) NCC1Cc2c(C(F)(F)F)ccc(Cl)c2O1 (racemic) [Example 14] : Not met
2) CNCC1Cc2cc(C(F)(F)F)cc(-c3cccc(F)c3F)c2O1 (racemic) [Example 521] : Not met
3) NCC1Cc2cccc(-c3cccc(Cl)c3)c2O1 (racemic) [Example 65] : Not met
4) NCC1Cc2cccc(-c3ccc(Cl)cc3)c2O1 (single isomer, unassigned; (+)) [Example 77] : Met

---

log10 Ki reference
# ASSAYED TARGET: human 5-hydroxytryptamine-2C (h5-HT2C) receptor (Homo sapiens, UniProt P28335)
# Construct: expressed in transfected cells; host or cells: CHO (Chinese Hamster Ovary) cells; membranes
# PROCEDURE TEXT: [125I]DOI binding to membranes of CHO cells expressing the human 5-HT2C receptor
# STATED CONDITIONS: [125I]DOI radioligand, CHO cell membranes, room temperature 60 min; read-out: 5-HT2C Affinity Ki
MEASURED QUANTITY: log10 Ki (log10 of the value in nM)

1. CN(C)CC1Cc2cc(F)cc(-c3c(Cl)cccc3Cl)c2O1 (racemic) : -0.24
2. COc1cccc(-c2cc(Cl)cc3c2OC(CN)C3)c1OC (racemic) : 0.60
3. NCC1Cc2cc(F)cc(-c3ccccn3)c2O1 (racemic) : 0.48
4. COc1ccc(Nc2cccc3c2OC(CN)C3)cc1C (racemic) : 2.20
5. NCC1Cc2cccc(-c3ccccc3F)c2O1 (single isomer, unassigned; (-)) [Example 52] : 1.11
6. NCC1Cc2cccc(-c3cc(Cl)ccc3Cl)c2O1 (single isomer, unassigned; (+)) [Example 164] : -0.55
7. NCC1Cc2cc(-c3ccccc3)cc(-c3ccccc3Cl)c2O1 (racemic) : 1.99
8. CNCC1Cc2cc(OC)cc(-c3ccccc3F)c2O1 (racemic) : 1.34
9. NCC1Cc2cc(Cl)cc(-c3ccccc3Cl)c2O1 (racemic) : -0.10
10. Cc1ccccc1-c1cccc2c1CC(CN)O2 (single isomer, unassigned; (-)) [Example 6] : 1.92
11. COc1ccc(-c2cccc3c2OC(CN)C3)cc1 (racemic) [Example 79] : 0.30
12. CNCC1Cc2cccc(-c3ccccc3OC)c2O1 (racemic) : 1.32
13. CNCC1Cc2cc(-c3ccccc3)cc(-c3ccccc3Cl)c2O1 (racemic) : 2.57
14. CNCC1Cc2cc(OC)cc(-c3cc(F)ccc3F)c2O1 (racemic) : 1.54
15. Cc1ccccc1-c1c(F)ccc2c1OC(CN)C2 (single isomer, unassigned; (-)) [Example 397] : 0.20
16. COc1cc2c(c(-c3cccc(Cl)c3Cl)c1)OC(CN)C2 (racemic) : 1.56
17. NCC1Cc2cc(F)cc(-c3ccccc3)c2O1 (racemic) : 0.85
18. NCC1Cc2cc(C(F)(F)F)cc(-c3cc(Cl)ccc3Cl)c2O1 (racemic) : 1.53
